The reader will find reported yeast fitness (ln) values listed item by item below.
B1: tRNA (parent)
chain: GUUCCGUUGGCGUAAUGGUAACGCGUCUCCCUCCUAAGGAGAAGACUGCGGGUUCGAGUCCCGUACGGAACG

# Variants of: B1
# Assay overview: yeast fitness, log relative to wild type (ln ratio); higher = fitter; tRNA-Arg(CCU), competitive growth, 37 C, 1 M NaCl

G1A G6A C27U C66A A70U C71U; -0.292

Challenge: Reported yeast fitness (ln) for U2G C46U A69G C71U : what is it?
Response given: -0.0879

Challenge: Again, but for U2G C46U A69G
Response given: -0.208

Challenge: Again, but for U2G G6A C27U C66U A69G A70G C71U
Response given: -0.272

Challenge: Again, but for G6A A69G A70G C71U
Response given: -0.263

Challenge: Again, but for U2G G6U C27U A43C C46U C66U A70G C71U
Response given: -0.315

Challenge: Again, but for U2G C66A A70G C71U
Response given: -0.168

Challenge: Again, but for G1A U2G C27U A69G C71U
Response given: -0.251
